Items are presented alongside their recorded growth.
- System: EKVX NSCLC
- Method Summary: NCI-60 one-dose screen, 48 h (100 = growth as untreated, 0 = no growth, -100 = all killed)
- Recorded Conditions: 10 µM unless noted
About 83,000 compounds went through this panel and 20% of them were active in at least one assay; those are over-represented in the sample as a whole.

{"columns": ["Compound", "Unit", "growth"],
 "data": [
  ["CC1CC=CCC12C(=O)NC(=S)NC2=O (stereo unspecified)", "%", 95.9],
  ["CC[C@@]1(C2O[C@@H](C3O[C@@](O)(CC)[C@H](C)C[C@@H]3C)C[C@@H]2C)CC[C@H]([C@]2(C)CCC3(C[C@H](O)[C@@H](C)[C@@H]([C@H](C)[C@@H](OC)[C@H](C)C(=O)O)O3)O2)O1 (stereo partly specified)", "%", 26.1],
  ["O=C1NC(=O)C(=Cc2cn(Cc3ccccc3)c3ccccc23)C(=O)N1", "%", 63.7],
  ["CC(=O)N(C)C1=Nc2ccc(Cl)cc2C(c2ccccc2)=[N+]([O-])C1", "%", 115],
  ["COc1cc(NCCCCCN=C(N)N)c2ncccc2c1", "%", 65.4],
  ["N#[N+]c1cnc([O-])[nH]c1=O", "%", 114],
  ["CCOCC1(CCc2ccccc2)C(=O)NC(=S)NC1=O", "%", 116],
  ["NS(=O)(=O)c1nc[nH]c1[N+](=O)[O-]", "%", 117],
  ["Nc1c(Br)cc([N+](=O)[O-])cc1[N+](=O)[O-]", "%", 93.6],
  ["C/C(=C\\C(=O)O[C@H]1[C@@H]2[C@H](C)CC[C@H]2[C@]2(C)O[C@@]1(C1CCCCC1)C[C@H]2OC(=O)CO)c1ccccc1", "%", 48],
  ["O=C(CF)N(O)c1ccc(/C=C/c2ccccc2)cc1", "%", 98.5],
  ["C[CH2][Sn]([CH2]C)([CH2]C)[NH]S(=O)(=O)c1ccc(C)cc1", "%", 99],
  ["O=C(C(=O)N1CCCC1)c1cn(CCCCCn2cc(C(=O)C(=O)N3CCCC3)c3ccccc32)c2ccccc12", "%", 75.5],
  ["C=CCC1(CC)C(=O)NC(=S)NC1=O", "%", 105],
  ["CC(C)Nc1ccc(Nc2ccccc2)cc1", "%", 29.4],
  ["S=P(N1CCCCCC1)(N1CC1)N1CC1", "%", 119],
  ["O=CN1N=C(c2ccccc2)CC1c1sc(N(CCCl)CCCl)nc1Cl (stereo unspecified)", "%", 89.5],
  ["[Cl][Hg][n]1cnc2c(Cl)c(Cl)c(Cl)cc21", "%", 81.7],
  ["CC(C)CCC1(CCO)C(=O)NC(=S)NC1=O", "%", 105],
  ["O=[N+]([O-])c1ccc(F)c([N+](=O)[O-])c1F", "%", 100],
  ["C[C@]12CC[C@H](OC3OC(O)C(O)C(O)C3O)C=C1CCC1C2CC[C@]2(C)[C@@H](c3ccc(=O)oc3)CC[C@]12O (stereo partly specified)", "%", -86.6]
]}

---

- Tested on: HL-60(TB) leukemia
- Method Summary: NCI-60 one-dose screen, 48 h
- Recorded Conditions: 10 µM unless noted
Compounds without any hit were thinned out: in the full panel of roughly 83,000, 20% have a hit. Active and inactive are the calls of the source. Rule for the calls: active = growth percent below 10; inactive = the rest.
Classes used: Y (active), N (inactive)

{"columns": ["Compound", "Assigned Class"],
 "data": [
  ["C=C1CC[C@@H]2[C@](C)(COC(C)=O)[C@H](OC(C)=O)CC[C@@]2(C)[C@@H]1CC(Nc1ccc(S(=O)(=O)Nc2ncccn2)cc1)C1=CCOC1=O (some centres not stated)", "Y"],
  ["OC(CNc1ccnc2cc(Cl)ccc12)CNc1ccnc2cc(Cl)ccc12", "Y"],
  ["C=CCNC(=S)NN", "N"],
  ["Brc1ccc(Nc2nc3ccccc3nc2Nc2ccc(Br)cc2)cc1", "Y"],
  ["CC/C=C\\C[C@H](O)C/C=C1/C(=O)C=C[C@@H]1C/C=C\\CCCC(N)=O", "Y"],
  ["OCc1ccccc1F", "N"],
  ["CC(=O)OC(C)COc1ccc(-c2ccccc2)cc1 (configuration not stated)", "N"],
  ["CCOC(=O)c1ccc(NC(=O)CSC(N)=O)cc1", "N"],
  ["O=S(=O)(/N=C1C=C/C(=N\\S(=O)(=O)c2ccccc2)c2ccccc2\\1)c1ccccc1", "N"],
  ["Clc1ccc2c(Nc3ccc4oc(NCCN5CCCC5)nc4c3)ccnc2c1", "N"],
  ["CCCn1cnc2c(c1=N)C(c1ccc(F)cc1)c1sc3c(F)cccc3c1O2 (configuration not stated)", "Y"],
  ["CN(C)CCN1C(=O)c2cccc3cc(N)cc(c23)C1=O", "Y"],
  ["CCCCOc1ccc(NC(=O)Nc2nnc(C)s2)cc1", "N"],
  ["CC(C)(C)N1CC(OC(N)=O)C1", "N"],
  ["CCC(=O)OC1CCC2C3CCC(=O)OC3C(C)(CCC(=O)O)CC12C (configuration not stated)", "Y"],
  ["N#Cc1c(Cl)nc(SCC2CO2)nc1-c1ccccc1 (configuration not stated)", "N"],
  ["CC1=CC(=O)C(C(C)C)=CC1=Nc1cc(Br)c(O)c(Br)c1", "Y"],
  ["Oc1ccc(C#CCOc2ccccc2)cc1CNCCN(Cc1ccccn1)Cc1ccccn1", "Y"],
  ["COc1cc(C(=O)c2c(-c3ccccc3)oc3ccccc23)cc(OC)c1O", "Y"],
  ["N#Cc1nc(-c2ccc(F)cc2)oc1S(=O)(=O)N1CCN(c2ccc(F)cc2)CC1", "N"],
  ["CC1OC(n2c3ccccc3c3c4c(c5c6ccccc6[nH]c5c32)C(=O)N(CCN2CCOCC2)C4=O)CC(O)C1O (configuration not stated)", "N"],
  ["O=CCCCOCc1ccccc1", "N"],
  ["CC1(C)CC[C@]2(c3nnc(-c4ccncc4)o3)CC[C@]3(C)C(=CC[C@@H]4[C@@]5(C)CCC(=O)C(C)(C)[C@@H]5CC[C@]43C)[C@@H]2C1", "N"],
  ["CCn1cc(C(=O)O)c(=O)c2cc(F)c(N3CCN(CC(=O)Nc4ccccc4)C(C)C3)c(F)c21 (configuration not stated)", "N"],
  ["CCCCC1COc2cccc3c2N1C=C/C3=C\\C(=O)n1ccc2ccccc21 (configuration not stated)", "N"],
  ["CCN(C(=O)N1CCN(c2cc3c(cc2F)c(=O)c(C(=O)O)cn3C2CC2)CC1)c1nc(-c2ccccc2)cs1", "Y"],
  ["Brc1ccc(Br)nn1", "Y"],
  ["CCN(CC)S(=O)(=O)c1ccc2[nH]c(=O)cc(C(=O)Nc3ccc(OC)cc3OC)c2c1", "N"],
  ["CC(=O)NC1(C(=O)O)CCCC1", "N"],
  ["O=c1cc(-c2ccccc2)oc2c1ccc1ccccc12", "N"],
  ["Cc1nc2ccccc2c(/C=C/c2ccc(Br)cc2)c1C(=O)/C=C/c1ccccc1", "Y"],
  ["COc1cc(-c2ccc[nH]2)[nH]c1/C=C1\\N=C(C)C(CC(=O)OCC(C)(C)C)=C1C", "Y"],
  ["COc1cnc2c(c1)C(=O)c1c-2n(CCCN2CCCC2)c(=O)c2cc(Cl)ccc12", "N"],
  ["COc1ccc(N=c2nc3sc4cc(Cl)ccc4n3c(N)c2C#N)cc1", "N"],
  ["COc1ccc(-c2c(C#N)cnc(N)c2-c2nc3cc(C)c(C)cc3[nH]2)cc1", "N"],
  ["CC(=O)c1cc(C(=O)c2ccc3c(c2)Sc2ccccc2N3)c2c(C)cc(C)cn12", "Y"],
  ["COc1cc2c3c(n(C4CCN(C)CC4)c(=O)c2cc1OC)-c1cc2c(cc1C3=O)OCO2", "N"],
  ["COc1cc2cc(Oc3ccc(NC(=O)Nc4ccc(C(F)(F)F)cc4)cc3)c(C)nc2cc1OC", "N"],
  ["O=S(=O)(NCCNc1nccc(-c2c(-c3ccc(F)c(O)c3)nc3sccn23)n1)c1ccc(Cl)cc1", "Y"],
  ["O=C(CN1CCCCCC1)Nc1nc2ccc(NCc3ccc(Cl)cc3)cc2s1", "N"],
  ["O=[N+]([O-])c1ccc(/C=N\\Nc2ccccc2)cc1", "N"],
  ["Nc1ccn(C2OC(CO)C(O)C2F)c(=O)n1 (configuration not stated)", "N"]
]}

---

- Test system: SF-539 CNS
- Method Summary: NCI-60 one-dose screen, 48 h
- Recorded Conditions: 10 µM unless noted
The panel holds about 83,000 compounds, 20% with a hit somewhere; the sample as a whole holds those more often. The source made the active and inactive calls. Rule for the calls: active = growth percent below 10; inactive = the rest.
Classes used: true = active, false = inactive

{"columns": ["Compound", "Target Or System", "Assigned Class"],
 "data": [
  ["CC(N)Cc1ccc(O)cc1 (stereo unspecified)", "SF-539 CNS", "false"],
  ["C[C@]12CC[C@@H]3c4ccc(OC(=O)Cc5ccc(N(CCCl)CCCl)cc5)cc4CC[C@H]3[C@@H]1CC[C@@H]2OC(=O)Cc1ccc(N(CCCl)CCCl)cc1", "SF-539 CNS", "false"],
  ["CCN(CC)c1ccc(C=C2C(=O)NC(=S)NC2=O)cc1", "SF-539 CNS", "false"],
  ["CC1(C)N=C(N)N=C(N)N1c1ccc(CCCCc2ccc(S(=O)(=O)F)cc2)c(Cl)c1", "SF-539 CNS", "false"],
  ["Nc1ncnc2c1c(C(=O)NO)cn2C1OC(CO)C(O)C1O (stereo unspecified)", "SF-539 CNS", "true"],
  ["C[C@]12CCC(=O)CC1CC[C@@H]1C2CC[C@@]2(C)C1CC[C@@H]2OC(=O)CC[Se][Se]CCC(=O)O[C@H]1CCC2[C@@H]3CCC4CC(=O)CC[C@]4(C)C3CC[C@@]21C (stereo partly specified)", "SF-539 CNS", "false"],
  ["N#CC(C#N)=Cc1ccc2ccccc2c1", "SF-539 CNS", "false"],
  ["Cc1ccc2oc(=O)c3c(c2c1)OC(N)=C(C#N)C3c1ccco1 (stereo unspecified)", "SF-539 CNS", "false"],
  ["CC1(C)N=C(N)N=C(N)N1c1ccc(OCCCCNC(=O)c2ccc(S(=O)(=O)F)cc2)c(Cl)c1", "SF-539 CNS", "false"],
  ["CCC1CN1P(=O)(OCCOC)N1CC1CC (stereo unspecified)", "SF-539 CNS", "false"],
  ["c1ccc(-c2ccc3ccccc3[o+]2)cc1", "SF-539 CNS", "false"],
  ["CCC[CH2][Sn]([CH2]CCC)([CH2]CCC)[O]C(=O)c1ccc(Cl)cc1Cl", "SF-539 CNS", "true"],
  ["Nc1ccc(N)c2c1Oc1ccccc1O2", "SF-539 CNS", "false"],
  ["N#C[Se]CCCNS(=O)(=O)C1CC2C=CC1C2 (stereo unspecified)", "SF-539 CNS", "true"],
  ["O=[N+]([O-])c1cccc([As]=[As]c2cccc([N+](=O)[O-])c2)c1 (stereo unspecified)", "SF-539 CNS", "true"],
  ["N#C[Se]CCN1C(=O)C2C(C1=O)[C@H]1C=C[C@@H]2S1 (stereo partly specified)", "SF-539 CNS", "true"],
  ["Nc1c(Br)cc([N+](=O)[O-])cc1[N+](=O)[O-]", "SF-539 CNS", "false"],
  ["C[C@]12CCc3sc(-c4ccc(Cl)cc4)nc3C1=CC[C@@H]1[C@@H]2CC[C@]2(C)C(=O)CC[C@@H]12", "SF-539 CNS", "false"],
  ["ClCCN(CCCl)c1ccc(/C=C\\c2ccnc3ccccc23)cc1", "SF-539 CNS", "false"],
  ["COc1ccc(C(=O)c2ccc([As]=O)cc2)cc1 (stereo unspecified)", "SF-539 CNS", "true"],
  ["COc1ccc(-c2ccc(OC)c(OC)c2OC)cc1", "SF-539 CNS", "true"]
]}
